- METHOD_DESCRIPTION: xn = mol fraction of the nth substance listed, in the solute-free solvent
- MEASUREMENT_CONTEXT: 283.15 K; x2 = 0.8
EXPERIMENTAL_READOUT: solubility (g/100 g solution)

Cl.N=C(N)NC(=N)N1CCOCC1 + O + CC(C)O
25.8
Cc1c(Br)c(=O)n(C2CCCC2)c2nc(Cl)ncc12 + CC1=CC(=O)CC(C)(C)C1 + CC(C)O
0.579
COC(=O)C(N)CS.Cl (stereo not given) + CCO + ClCCl
6.02
Cl.NC(Cc1ccccc1)C(=O)OCc1ccccc1 (stereo not given) + CO + CC(C)=O
9.27
Cc1ncc(CO)c(CO)c1O.Cl + O + CC(C)O
6.11
